Test system: MOLT-4 leukemia
procedure-details: NCI tumour cell line growth inhibition, 48 h
Listed below: TGI values for each entry.

Example entries begin here.
1) Cc1ccc(NC(=O)CCC/C(CC(=O)c2ccc(Br)cc2)=N/NC(=O)CC#N)cc1	> 100 µM
2) NC(=S)N/N=C(\C(=O)Nc1cccc([N+](=O)[O-])c1)c1nc2ccc([N+](=O)[O-])cc2[nH]c1=O	> 100 µM
3) CC1(C)CC(n2cnc(-c3ccc(F)cc3)c2-c2ccnc(N)n2)CC(C)(C)N1	> 25 µM
4) COC(=O)C12C3C4C5C3(C#N)C1C5(C(=O)OC)C42C(=O)N(C(C)C)C(C)C (stereo not given)	> 100 µM

-- ask Please look up its TGI: N#Cc1c(Cl)c2ccccc2n2c1nc1ccccc12
-- reply 75.9 µM

-- ask Please look up its TGI: Cc1cc2cc3c(C)cc(=O)oc3c(C)c2o1
-- reply > 100 µM

-- ask Please look up its TGI: Nc1ccc2c3c(n(CCCCl)c(=O)c2c1)-c1cc2c(cc1C3=O)OCO2
-- reply > 100 µM

-- ask Please look up its TGI: Cc1cc(C)nc(NS(=O)(=O)c2ccc(Nc3c4ccc(Cl)cc4nc4c(C(=O)Nc5ccc(S(=O)(=O)N=C(N)N)cc5)cccc34)cc2)n1
-- reply > 100 µM

-- ask Please look up its TGI: COc1ccc2c(c1)N=C1CSC(c3cccc(Br)c3)N1C2 (stereo not given)
-- reply 31 µM

-- ask Please look up its TGI: C(=NCc1ccccc1)c1ccccc1-c1ccccc1C=NCc1ccccc1
-- reply > 10 µM

====

Tested on: UACC-62 melanoma
procedure-details: NCI tumour cell line growth inhibition, 48 h
result-type: TGI (µM)
The figure you give is taken to be in µM; do not add the unit.

Example entries begin here.
1. COc1ccc(C(=O)OC2C=COC(C)C2OC(=O)c2ccc(OC)cc2)cc1 (configuration not stated)	37.7
2. COc1ccc2c(CN3CCC[C@H]3C(=O)O)cc3cc4c(cc3c2c1)OCO4	23.7

Here is another compound to look at.
-- ask Please look up its TGI: Cc1cc(N2CCCC2)nc(NC2CCCC(Nc3ccnc4cc(Cl)ccc34)C2)n1 (configuration not stated)
-- reply 3.57

====

Tested on: SF-295 CNS
procedure-details: NCI tumour cell line growth inhibition, 48 h
Where a SMILES comes first, the peptide text is derived from it. [ ]: non-standard residue; d: D form. The star is where a group is joined. ξ: configuration not given here. NMeN = CN[C@@H](CC(N)=O)C(=O)O; NMeV = CN[C@H](C(=O)O)C(C)C; ξNMeV = CNC(C(=O)O)C(C)C; Boc = CC(C)(C)OC(=O)*; ξNMeA = CNC(C)C(=O)O
Listed below: GI50 values for each entry.

Example entries begin here.
1. CC(C)CNc1nc(-c2ccccc2)nc2ccccc12	14.5 µM
2. COC(=O)C(C)N(C)C(=O)[C@H](CC(N)=O)N(C)C(=O)[C@@H]1CCCN1C(=O)[C@H](C(C)C)N(C)C(=O)C(C(C)C)N(C)C(=O)[C@@H](NC(=O)OC(C)(C)C)C(C)C (stereo partly drawn) (Boc-V[ξNMeV][NMeV]P[NMeN][ξNMeA]-OMe)	> 100 µM

-- ask Please look up its GI50: COc1cc2cc(C(=O)Nc3cc(N)c4ccccc4c3CCCl)[nH]c2c(OC)c1OC
-- reply 0.016 µM

-- ask Please look up its GI50: NC(=N\N=C/c1cccc([N+](=O)[O-])c1)/C(N)=N\N=C/c1cccc([N+](=O)[O-])c1
-- reply > 100 µM

-- ask Please look up its GI50: COc1cc2c(Oc3ccc4[nH]c(C)cc4c3F)ccnc2cc1OCC1(N)CC1
-- reply 1.07 µM

-- ask Please look up its GI50: CCCN1CCN(c2ccc3nc(-c4ccc5nc(-c6cc(OC)ccc6OC)[nH]c5c4)[nH]c3c2)CC1
-- reply 15.7 µM

-- ask Please look up its GI50: COc1c(Cl)c2c(c(OC)c1OC)-c1ccc(SC)c(=O)cc1[C@@H](NC(=O)OCC(F)(F)F)CC2
-- reply < 0.01 µM

-- ask Please look up its GI50: NC1CCCCC1N.O=S(=O)([O-])CCCN1CCOCC1.O=S(=O)([O-])CCCN1CCOCC1.[Pt+4]
-- reply 15.5 µM
